tested on: RPS6KA5(Kin.Dom.2-C-terminal); details: concentration: 1 μM, replicates: in singlicate; n = 1
Reported property: %Inh (%)
// return numeric value only (unit: %, not printed)

- COc1ccc(Nc2ncc(C#N)c(Nc3ccccc3C(N)=O)n2)cc1N1CCN(C)CC1.Cl: 44

Would you mind telling me what %Inh value was observed for "Cn1cc(-c2ccc3c(c2)CCN3C(=O)Cc2ccccc2Cl)c2c(N)ncnc21" ?
3

* * *

Listed here are compounds together with their documented %Inh.
system: DCAMKL3; construct: gene DCLK3; details: concentration: 1 μM, replicates: in singlicate; n = 1
Please respond with the number in % and leave the unit unwritten.

Example entries begin here.
* O=c1cc(N2CCOCC2)nc2n(Cc3cccc(C(F)(F)F)c3)ccn12 [GSK2297543] | 0
* Cc1c(Cn2c(C)nn3c(=O)cc(N4CCOC(C)C4)nc23)cccc1C(F)(F)F (stereo not drawn) [GSK2344444] | 21

Field request: %Inh | item: CN(C1=C(c2ccccc2)C(=O)NC1=O)c1ccccc1 [SB-334860]
0

Which value of %Inh has been reported for NS(=O)(=O)c1cccc(-c2ccc3ncc(N4CCOCC4)nc3c2)c1 [GSK1535721] in the records?
0

Param item = N#Cc1ccc(-c2cc(-c3c[nH]nc3-c3ccccn3)ccn2)cc1 [GW693028] ; retrieve measured %Inh.
0

Dear colleague, I am looking for the recorded %Inh of the following compound: O=C(c1ccc(-c2cc(-c3c[nH]nc3-c3ccccn3)ccn2)cc1)N1CCOCC1 [GW812171]
0

Endpoint output: %Inh of "COc1cc2c(cc1OCCN1CCN(C)CC1)ncc1c3ccc(C#N)cc3[nH]c21" . Value?
100

Which measured %Inh value corresponds to O=c1cc(N2CCOCC2)nc2n(Cc3cccc(F)c3)ccn12 [GSK2297430] ?
2

Fill in the blank: the reported %Inh of COc1ccc(COc2cc(-n3cnc4ccccc43)sc2C(N)=O)cc1 [GSK1024304] is ____.
0

Find the recorded %Inh belonging to COC(=O)Nc1nc2cc(Oc3ccc(NC(=O)Nc4cc(F)ccc4F)cc3)ccc2[nH]1.Cl [GW701424] and report it.
17

What %Inh value was documented for this compound, "N#Cc1c(N2CCOCC2)sc(-c2ccn[nH]2)c1-c1ccc(Cl)cc1" ?
0

Fill in: %Inh of CNc1ncnc2[nH]ncc12 [SKF-18355] is ___
0

* * *

Item-by-item account of %Inh
tested on: NIM1; construct: gene MGC42105; conditions: concentration: 1 μM, replicates: in singlicate; n = 1
Record the value in %, omitting the unit from your answer.

Worked cases, answers included:
* O=C(c1ccc(-c2cc(-c3c[nH]nc3-c3ccccn3)ccn2)cc1)N1CCOCC1 | 0
* O=c1cc(N2CCOCC2)nc2n(Cc3cccc(C(F)(F)F)c3)ccn12 | 14

Which %Inh reading was recorded for the compound "O=C(Nc1n[nH]c2cc(-c3cccc(F)c3)ccc12)C1CC1" ?
12

So what's the measured %Inh for this one? "CCc1ccnc(/C=C/c2n[nH]c3cc(Sc4ccccc4C(=O)NC)ccc23)c1"
0

GET /values?readout=%Inh&item= "N#Cc1ccc(-c2cc(-c3c[nH]nc3-c3ccccn3)ccn2)cc1"
35

Entry "CCc1nc(-c2cccc(C)c2)c(-c2ccnc(NCc3ccccc3)c2)s1" has what %Inh?
0

Which %Inh is reported for this compound? "Cn1ccc2ncnc(Oc3ccc(NC(=O)Nc4ccncc4)c(Cl)c3)c21"
0

Item "NS(=O)(=O)c1cccc(-c2ccc3nccc(-c4cccc(S(N)(=O)=O)c4)c3c2)c1" has what recorded %Inh?
0

Please report the recorded %Inh for "NS(=O)(=O)c1cccc(-c2ccc3ncc(N4CCOCC4)nc3c2)c1" .
0

Fill in: %Inh of Cc1c(Cn2c(C)nn3c(=O)cc(N4CCOC(C)C4)nc23)cccc1C(F)(F)F (stereo not drawn) is ___
3

Any idea what %Inh was measured for "Nc1nccc(-c2c(-c3ccc(F)cc3)ncn2C2CCN(CC(F)(F)F)CC2)n1" ?
50

Name the reported %Inh value associated with the compound "NS(=O)(=O)CCc1cccc(Nc2nccc(-c3c(-c4cccc(NC(=O)c5c(F)cccc5F)c4)nn4ccccc34)n2)c1"
15

What value of %Inh has been recorded for this entry: "CCn1cnc2c(N)ncnc21"
0

Entry under review: COc1ccc(Nc2nccc(N3CCC(NC(=O)Nc4cccc(C(C)=O)c4)C3)n2)cc1 (stereo not drawn) . Reported %Inh?
12

* * *

system: NLK;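 note: kd values determined as follow-up on hits from a single-replicate KINOMEscan panel screen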
Reported property: Kd
Please format your answer as a value with the unit trailing.

So what Kd did "O=C(Nc1n[nH]c2cc(-c3cccc(F)c3)ccc12)C1CC1" get with NLK?
87 nM

* * *

test system: MLK1; construct: gene MAP3K9; conditions: concentration: 1 μM, replicates: in singlicate; n = 1
Below: a set of entries, each annotated with reported %Inh.
Respond numerically; units are % and should not be typed.

• O=C(NCCNc1ccnc(Nc2ccc(F)cc2)n1)Nc1ccccc1F = 0
• c1ccc(-c2cc(-c3c[nH]nc3-c3ccccn3)ccn2)cc1 = 6
• O=c1cc(N2CCOCC2)nc2n(Cc3cccc(F)c3)ccn12 = 2
• COc1ccc(S(=O)(=O)NC2CCN(c3cc(C)nc(Nc4cccc(C#N)c4)n3)CC2)cc1.O=C(O)C(F)(F)F = 0
• Cc1cccc(Cn2ccn3c(=O)cc(N4CCOCC4)nc23)c1 = 18
• O=C(Nc1cccc(-c2nn3ncccc3c2-c2ccnc(Nc3cccc(C(F)(F)F)c3)n2)c1)c1c(F)cccc1F = 0
• Cc1nnc(-c2ccc3ncc(-c4ccc(S(C)=O)cc4)n3c2)o1 (stereo not drawn) = 0
• O=C1NC(=O)C(N2CCc3ccccc32)=C1c1cccc(Cl)c1 = 0

We now examine a further compound.
State the recorded %Inh for this entry: "Nc1nccc(-c2c(-c3ccc(F)cc3)ncn2C2CCN(CC(F)(F)F)CC2)n1"
0

* * *

tested on: STK16; conditions: concentration: 1 μM, replicates: in singlicate; n = 1
In this section we review reported %Inh values for a set of compounds.
Provide only the numeric value, understood in %.

In the examples that follow, each entry is paired with its recorded %Inh.
- Cc1ccc(C(=O)NCC(N)=O)cc1-n1c(C)cc(OCc2ccc(F)cc2F)c(Br)c1=O: 10
- Cn1ccc2ncnc(Oc3ccc(NC(=O)Nc4ccncc4)c(Cl)c3)c21: 10
- O=C1Cc2cc(Nc3nc(NCc4cccc(S(=O)(=O)C(F)(F)F)c4)ncc3C(F)(F)F)ccc2N1: 0
- Cc1c2ccc(N(C)c3ccnc(Nc4cccc(S(N)(=O)=O)c4)n3)cc2nn1Cc1ccccc1.Cl.Cl: 55
- [2H]C([2H])(c1cccc(C(F)(F)F)c1C)n1ccn2c(=O)nc(N3CCOCC3)cc12: 0
- CN(C1=C(c2ccccc2)C(=O)NC1=O)c1ccccc1: 14

Entry "Fc1ccc(-c2ncn(CCCN3CCOCC3)c2-c2ccccn2)cc1" : reported %Inh = ?
0

Look up %Inh: "O=C(c1ccc(-c2cc(-c3c[nH]nc3-c3ccccn3)ccn2)cc1)N1CCOCC1"
0

* * *

tested on: MEK4; construct: gene MAP2K4; conditions: concentration: 1 μM, replicates: in singlicate; n = 1
Reported property: %Inh (%)
Express it in %; write the number only.

• O=C(NOCC1CC1)c1ccc(F)c(F)c1Nc1ccc(I)cc1Cl = 0
• CCCCCc1nc2c(N)ncnc2n1CCCCC = 18
• Cc1nnc(-c2ccc3occ(-c4ccc(C(C)O)cc4)c3c2)o1 (stereo not drawn) = 15
• Cn1ccc2ncnc(Oc3ccc(NC(=O)Nc4ccncc4)c(Cl)c3)c21 = 0
• O=C(NCCNc1ccnc(Nc2ccc(F)cc2)n1)Nc1ccccc1F = 26

--- query ---
May I ask what %Inh has been recorded for "CC(C)(C)n1cnc2c(N)ncnc21" ?
0

* * *

test system: EPHA6; details: concentration: 1 μM, replicates: in singlicate; n = 1
Reported property: %Inh

Query for EPHA6: what %Inh does the record show for "Cn1cc(-c2ccc3c(c2)CCN3C(=O)Cc2ccccc2Cl)c2c(N)ncnc21" ?
58%

Request body: readout %Inh, system EPHA6, query COc1ccc(Nc2nccc(N3CCC(NC(=O)Nc4cccc(C(C)=O)c4)C3)n2)cc1 (centres unmarked) . Return the value.
0%

// lookup %Inh | system=EPHA6 | key= "O=C(NCCNc1ccnc(Nc2ccc(F)cc2)n1)Nc1ccccc1F"
0%

API: value(readout= %Inh, system= EPHA6, query= Cc1nnc(-c2ccc3occ(-c4ccc(C(C)O)cc4)c3c2)o1 (centres unmarked) )
52%

Param readout= %Inh; system= EPHA6; entry= "COc1cc2c(cc1OCCN1CCN(C)CC1)ncc1c3ccc(C#N)cc3[nH]c21" ; returns value.
0%

Lab request: please report %Inh under test system EPHA6 for "COc1cc2c(cc1OC[C@@H](O)CO)ncc1c3ccc(C#N)cc3[nH]c21"
10%

Item: "CCc1ccnc(/C=C/c2n[nH]c3cc(Sc4ccccc4C(=O)NC)ccc23)c1" Test system: EPHA6 Read-out: %Inh Value: ?
0%

What measured %Inh is associated with "CN1c2ccc(CNc3ccc(F)cc3)cc2-c2c(cnn2C)S1(=O)=O" on EPHA6?
0%
